Form field: melting point (one value per entry).

Recorded melting point, per entry:
{"columns": ["compound", "value"],
 "data": [
  ["Cc1ccc2c(C#N)c(-c3ncc(S(=O)(=O)N[C@@H](C)C(F)(F)F)cn3)n(CC3CC3)c2c1 [compound 402]", "259 to 260 °C"],
  ["N#Cc1c(-c2ccc(S(=O)(=O)NC(CF)CF)cn2)n(CC2CC2)c2ccc(F)cc12 [compound 58]", "162 to 164 °C"]
]}

## Input Give reported melting point value for C[C@H](NS(=O)(=O)c1ccc(-c2c(C#N)c3cc(Cl)ccc3n2C2CCC2)nc1)C1CC1 [compound 119]
## Output 154 to 155 °C

## Input Entry Cc1cc2c(cc1O)c(C#N)c(-c1ccc(S(=O)(=O)NC(C)(C)C)cn1)n2C1CCC1 [compound 805] needs its melting point filled in; supply it.
## Output 211 to 213 °C
